# STUDY_TARGET: Dual specificity protein phosphatase 6 (Homo sapiens)
# RUN_DESCRIPTION: DUSP6 inhibitors restoring Erk phosphorylation by chemical complementation, primary imaging in DUSP6-transfected HeLa (AID 609);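 note: phospho-Erk level distribution per well compared with pooled transfected vehicle control wells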
# TEST_CONTEXT: HeLa MKP-3 transfected, phospho-Erk imaging KS statistic; at 10 µM; active compounds read high; cells stimulated with TPA for 15 min
The source made the active and inactive calls.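 Rule for the calls: active = compounds giving at least 50% inhibition in the cell-based MKP-3 phosphatase rescue imaging test; inactive = the rest.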
Catalogue of inhibition readings, one per entry.

Field: example entries. Status: answers known.
CSc1nc(N)nc(SCC(=O)CC(=O)OC(C)C)c1C#N: 16.8% (inactive)
CCOc1ccc(/C(O)=C2/C(=O)C(=O)N(CCN(CC)CC)C2c2ccco2)cc1 (stereo not drawn): -15% (inactive)
O=S(=O)(c1ccc2ccccc2c1)N(CC(O)CN1CCOCC1)c1ccccc1 (stereo not drawn): 1.42% (inactive)

Req: # input molecule: COc1ccccc1N1CCN(CCOc2c(OC)cccc2OC)CC1 ; wanted: its inhibition
Resp: -3.98% (inactive)

Req: For CCCSC1=C(C#N)C(c2ccc(OC)cc2)C2=C(CC(C)(C)CC2=O)N1 (stereo not drawn) then?
Resp: -4.59% (inactive)

Req: Queued: COc1ccc(N2CCN(c3nc4c(c(=O)[nH]c(=O)n4C)n3CCCc3ccccc3)CC2)cc1
Resp: 14.7% (inactive)

Req: Cool, now CC(=O)NCCCCCCNC(C)=O
Resp: 10.2% (inactive)

Req: Lookup Cc1ccc(N(CN2C(=O)NC(C)(C)C2=O)CN2C(=O)NC(C)(C)C2=O)cc1
Resp: 2.71% (inactive)

Req: Would you kindly repeat that for C=CCn1c(SCC#N)nc2c(c1=O)C(C)(C)Cc1ccccc1-2 ?
Resp: 34.8% (inactive)

Req: Next: COc1cccc(C2/C(=C(/O)c3cnn(-c4ccccc4)c3C)C(=O)C(=O)N2CCN(C)C)c1 (stereo not drawn)
Resp: -8.76% (inactive)

Req: Now consider CCN(CC)CCNC(=O)c1ccccc1N and answer again.
Resp: -8.95% (inactive)

Req: // next record CC(=O)OCC(=O)[C@@]1(O)CC[C@H]2[C@@H]3CCC4=CC(=O)C=C[C@]4(C)[C@@]3(Cl)[C@@H](Cl)C[C@@]21C
Resp: 11.3% (inactive)

Req: Subsequent entry: COc1cc(-c2nn3c(C4CCCCC4)nnc3s2)cc(OC)c1OC
Resp: -7.86% (inactive)

Req: // same read-out, input: Cc1cc(-c2ccc(F)cc2)nc2cc(C(N)=O)nn12
Resp: 5.57% (inactive)

Req: What do you get for CC(=O)c1ccc(O)c(CO)c1 ?
Resp: 4.37% (inactive)

Req: Ok, now COc1ccc(CCN(C)CCCC(C#N)(c2cc(OC)c(OC)c(OC)c2)C(C)C)cc1OC (stereo not drawn)
Resp: 30.1% (inactive)

Req: // query: COc1cccc(CNc2ccc(Br)cn2)c1O
Resp: 3.5% (inactive)

###

# STUDY_TARGET: Voltage-gated potassium channel subunit beta-2 (Rattus norvegicus) (UniProt P62483)
# Sequence (P62483 whole entry, looked up): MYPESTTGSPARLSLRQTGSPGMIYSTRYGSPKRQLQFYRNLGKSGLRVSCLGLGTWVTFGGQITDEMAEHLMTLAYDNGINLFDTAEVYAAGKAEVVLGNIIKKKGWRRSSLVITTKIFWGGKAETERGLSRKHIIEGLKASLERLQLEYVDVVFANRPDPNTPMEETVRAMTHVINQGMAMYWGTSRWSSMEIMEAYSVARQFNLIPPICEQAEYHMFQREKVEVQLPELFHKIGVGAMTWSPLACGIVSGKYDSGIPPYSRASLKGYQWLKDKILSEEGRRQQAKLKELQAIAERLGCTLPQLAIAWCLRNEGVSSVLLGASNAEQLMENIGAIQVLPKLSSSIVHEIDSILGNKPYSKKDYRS
# RUN_DESCRIPTION: KvBeta positive modulators, primary screen, biochemical, NADPH fluorescence (AID 623);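 note: fluorescence intensity change per second fitted from 20 to 320 s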
# TEST_CONTEXT: Recombinant KvBeta, NADPH fluorescence decrease slope, 10 min; at 10 µM; active compounds read low
Let's look at some compounds and their measured NADPH fluorescence slope.
// print number alone

A selection of reference data follows.
Cc1cc(=O)oc(C)c1C(=O)N1CCN(C)CC1: -0.000105
CCOc1ccc(C2/C(=C(/O)c3ccc(OC)cc3)C(=O)C(=O)N2c2cc(C)on2)cc1OC (stereo not given): -0.000115
COc1ccccc1-n1c(=O)c2c3c(sc2n2c(SC(C)C)nnc12)CCC3: 1.3e-05
CCOC(=O)CCCCC(=O)NC(CO)C(=O)NC (stereo not given): -2.1e-05
Cc1nc(Nc2ncc3c(n2)CC(C)(C)CC3=O)nc2ccccc12: -2.4e-05

Req: Endpoint output: NADPH fluorescence slope of CC(C)(C)n1nnc(CCc2nnn(C(C)(C)C)n2)n1 . Value?
Resp: -0.000126

Req: Again, but for CC(=O)O[C@]1(C(C)=O)CC[C@H]2[C@@H]3C=C(C)C4=CC(=O)CC[C@]4(C)[C@H]3CC[C@@]21C
Resp: -2e-05
